Data origin: patent US11149019B2

- tested_target: BTK (Homo sapiens)
- Sequence (Q06187 whole entry): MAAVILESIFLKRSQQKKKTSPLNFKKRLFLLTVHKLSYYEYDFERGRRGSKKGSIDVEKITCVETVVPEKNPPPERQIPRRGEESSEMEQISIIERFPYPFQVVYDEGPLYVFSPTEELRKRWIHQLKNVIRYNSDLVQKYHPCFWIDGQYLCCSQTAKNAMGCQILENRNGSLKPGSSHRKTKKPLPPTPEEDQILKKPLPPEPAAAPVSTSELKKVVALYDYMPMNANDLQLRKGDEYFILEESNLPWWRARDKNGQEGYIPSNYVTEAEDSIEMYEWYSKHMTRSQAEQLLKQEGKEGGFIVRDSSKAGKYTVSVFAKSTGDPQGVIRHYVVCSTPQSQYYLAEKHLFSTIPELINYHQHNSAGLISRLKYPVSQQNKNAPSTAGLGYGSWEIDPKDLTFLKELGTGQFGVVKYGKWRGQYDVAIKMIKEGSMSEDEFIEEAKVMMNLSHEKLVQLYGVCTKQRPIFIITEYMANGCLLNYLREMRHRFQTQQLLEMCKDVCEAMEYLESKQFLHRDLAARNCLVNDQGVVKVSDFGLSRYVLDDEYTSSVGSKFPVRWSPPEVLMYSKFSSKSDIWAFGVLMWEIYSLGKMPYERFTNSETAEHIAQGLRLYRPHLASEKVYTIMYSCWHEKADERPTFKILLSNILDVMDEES
reported_property: pIC50
Numbers only, as −log10 of the molar value.

Some solved cases for reference:
C=CC(=O)Nc1cccc(-c2cc(CN3CCN(CCOC)CC3)cc(Nc3ncc(C)s3)n2)c1 [Compound 49] = 8.89
C=CC(=O)Nc1cc(-c2cc(CN3CCOCC3)cc(Nc3ncc(C)s3)n2)ccc1C [Compound 58] = 8.19
C#CC(=O)Nc1ccc(-c2cc(Cc3ccccc3)cc(Nc3cc(C)[nH]n3)n2)cc1 [Compound 3] = 7.34

Items follow; give pIC50 for each.
1. C=CC(=O)Nc1cccc(-c2cc(CN3CCCC3)cc(Nc3ncc(C)s3)n2)c1 [Compound 47]
2. C=CC(=O)Nc1cccc(-c2cc(CN3CCN(CCO)CC3)cc(Nc3ncc(C)s3)n2)c1 [Compound 43]
3. C=CC(=O)Nc1cccc(-c2cccc(Nc3cc(-c4ccccc4)[nH]n3)n2)c1 [Compound 14]
4. C=CC(=O)Nc1cccc(-c2cc(CN3CCCN(C)CC3)cc(Nc3ncc(C)s3)n2)c1 [Compound 55]
5. C=CC(=O)Nc1cccc(-c2cc(C)cc(Nc3ncc(C)s3)n2)c1 [Compound 26]
6. C=CC(=O)Nc1cccc(-c2cc(CN3CCOCC3)cc(NC(=O)NC)n2)c1 [Compound 67]

8.52
8.64
6.46
7.97
7.98
7.19

Items follow; give pIC50 for each.
1. C=CC(=O)Nc1cccc(-c2cc(CN3CCOCC3)cc(Nc3ncc(C(=O)Nc4c(C)cccc4Cl)s3)n2)c1 [Compound 33]
2. C=CC(=O)N(CC)c1cccc(-c2cc(CN3CCOCC3)cc(Nc3ncc(C)s3)n2)c1 [Compound 66]

1. 8.72
2. 8.89

###

What follows is a record of IC50 for BTK (Homo sapiens).

Some solved cases for reference:
C=CC(=O)Nc1cc(-c2cc(CN3CCOCC3)cc(Nc3ncc(C)s3)n2)ccc1F = 0.0018 µM
C=CC(=O)Nc1cccc(-c2cc(C(=O)N3CCOCC3)cc(Nc3ncc(C)s3)n2)c1 = 0.0052 µM
C=CC(=O)Nc1cccc(-c2cc(CN3CCOCC3)cc(Nc3ncc(C)s3)n2)c1 = 0.0031 µM
C=CC(=O)Nc1cccc(-c2cc(Cc3ccccc3)cc(Nc3cc(C(C)c4ccc(C)cc4)[nH]n3)n2)c1 (stereo not shown) = > 1 µM
C=CC(=O)Nc1cccc(-c2cc(C(=O)N3CCOCC3)cc(Nc3cc(C4CC4)[nH]n3)n2)c1 = 0.31 µM

Items follow; give IC50 for each.
1. C=CC(=O)Nc1cccc(-c2cc(CN3CCOCC3)cc(Nc3nnc(C)o3)n2)c1
2. C=CC(=O)Nc1cccc(-c2cc(Cc3ccccc3)cc(Nc3cc(Cc4ccc(C)cc4)[nH]n3)n2)c1
3. C=CC(=O)Nc1cccc(-c2cccc(Nc3cc[nH]n3)n2)c1

["> 0.4 µM", "0.308 µM", "0.018 µM"]

Items follow; give IC50 for each.
1. C=CC(=O)Nc1cccc(-c2cc(C)cc(Nc3cc(C4CC4)[nH]n3)n2)c1
2. C=CC(=O)Nc1cccc(-c2cc(Cc3ccccc3)cc(Nc3cc(-c4ccccc4)[nH]n3)n2)c1

1: 0.0086 µM; 2: 0.777 µM

Items follow; give IC50 for each.
1. C=CC(=O)Nc1ccc(-c2cc(Cc3ccccc3)cc(Nc3cc(C)[nH]n3)n2)cc1
2. C/C=C/C(=O)Nc1cccc(-c2cc(Cc3ccccc3)cc(Nc3cc(C)[nH]n3)n2)c1
3. C=CC(=O)Nc1cccc(-c2cc(Cc3ccccc3)cc(Nc3cc(C4CCCC4)[nH]n3)n2)c1
4. C=CC(=O)Nc1cccc(-c2cc(C)cc(Nc3ccccn3)n2)c1

> 1 µM
> 0.4 µM
0.634 µM
0.0287 µM

Items follow; give IC50 for each.
1. C=CC(=O)Nc1cccc(-c2cc(CN3CCN(C(C)=O)CC3)cc(Nc3ncc(C)s3)n2)c1
2. C=CC(=O)Nc1cccc(-c2cc(CN3CCN(C4CC4)CC3)cc(Nc3ncc(C)s3)n2)c1

1. 0.0019 µM
2. 0.003 µM

###

- tested_target: ITK (Homo sapiens, UniProt Q08881)
- Construct: purchased Promega Corporation
- protocol: ADP-Glo + ITK Kinase enzyme system kit, inhibitory activity against ITK
- Type: biochemical
- study_conditions: ITK enzyme 0.4 ng/ul, ATP final concentration of 25 ul, 30° C. for 1 hour, luminescence, duplicate
reported_property: IC50 (µM)
Give bare numbers, in µM.

Some solved cases for reference:
C=CC(=O)Nc1cccc(-c2cc(C(=O)N3CCOCC3)cc(Nc3cc(C)[nH]n3)n2)c1 [Compound 31] = 0.0569
C=CC(=O)Nc1cc(-c2cc(CN3CCOCC3)cc(Nc3ncc(C)s3)n2)ccc1F [Compound 56] = 0.0042

Consider now this further compound.
Item under review: C=CC(=O)Nc1cccc(-c2cc(CN3CCOCC3)cc(Nc3ncns3)n2)c1 [Compound 44] . Reported IC50?
0.012

###

Target protein (sequence): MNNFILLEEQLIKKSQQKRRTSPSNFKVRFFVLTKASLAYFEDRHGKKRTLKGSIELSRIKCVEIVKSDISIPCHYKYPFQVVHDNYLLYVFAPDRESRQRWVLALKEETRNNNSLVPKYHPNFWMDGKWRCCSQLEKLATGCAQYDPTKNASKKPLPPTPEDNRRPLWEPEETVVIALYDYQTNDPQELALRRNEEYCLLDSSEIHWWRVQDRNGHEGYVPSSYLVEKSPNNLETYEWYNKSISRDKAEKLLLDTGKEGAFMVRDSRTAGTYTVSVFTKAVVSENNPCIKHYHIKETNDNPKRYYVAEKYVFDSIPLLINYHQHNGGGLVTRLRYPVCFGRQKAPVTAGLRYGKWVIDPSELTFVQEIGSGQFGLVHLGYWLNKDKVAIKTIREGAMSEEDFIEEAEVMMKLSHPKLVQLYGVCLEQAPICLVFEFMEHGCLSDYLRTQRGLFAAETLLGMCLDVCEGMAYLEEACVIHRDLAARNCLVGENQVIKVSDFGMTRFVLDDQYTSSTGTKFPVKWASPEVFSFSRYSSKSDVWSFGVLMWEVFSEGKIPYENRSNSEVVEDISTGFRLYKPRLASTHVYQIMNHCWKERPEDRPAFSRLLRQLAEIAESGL
reported_property: IC50 (nM)
One number for each entry, in nM.

C=CC(=O)Nc1cccc(-c2cc(C(F)(F)F)cc(Nc3cc(C)[nH]n3)n2)c1 = 131
C#CC(=O)Nc1ccc(-c2cc(Cc3ccccc3)cc(Nc3cc(C)[nH]n3)n2)cc1 = 23.5

Item under review: C=CC(=O)Nc1cc(-c2cc(CN3CCOCC3)cc(Nc3ncc(C)s3)n2)ccc1C . Reported IC50?
14.1

###

- tested_target: ITK (Homo sapiens, UniProt Q08881)
- Construct: purchased Promega Corporation
- protocol: ADP-Glo + ITK Kinase enzyme system kit, inhibitory activity against ITK
- Format: biochemical
- study_conditions: ITK enzyme 0.4 ng/ul, ATP final concentration of 25 ul, 30° C. for 1 hour, luminescence, duplicate
reported_property: IC50 (nM)
Answers are plain numbers, in nM.

C=CC(=O)Nc1cccc(-c2cc(CN3CCN(CC(F)(F)F)CC3)cc(Nc3ncc(C)s3)n2)c1 [Compound 50] = 5
C=CC(=O)Nc1ccc(Cl)c(-c2cc(CN3CCOCC3)cc(Nc3ncc(C)s3)n2)c1 [Compound 64] = 15.7
C=CC(=O)Nc1cccc(-c2cc(CN3C[C@@H](C)O[C@@H](C)C3)cc(Nc3ncc(C)s3)n2)c1 [Compound 46] = 1.6
C=CC(=O)Nc1cccc(-c2cc(CN3CCOCC3)cc(Nc3cc(C)[nH]n3)n2)c1 [Compound 22] = 77.8

Items follow; give IC50 for each.
1. C=CC(=O)Nc1cc(F)cc(-c2cc(CN3CCOCC3)cc(Nc3ncc(C)s3)n2)c1 [Compound 57]
2. C=CC(=O)Nc1cccc(-c2cc(C(=O)N3CCOCC3)cc(Nc3cc(C4CC4)[nH]n3)n2)c1 [Compound 28]
3. C=CC(=O)Nc1cccc(-c2cc(Cc3ccccc3)cc(Nc3cc(C4CCCC4)[nH]n3)n2)c1 [Compound 4]
4. C=CC(=O)Nc1cccc(-c2cc(CN3CCN(CCO)CC3)cc(Nc3ncc(C)s3)n2)c1 [Compound 43]

1. 23.2
2. 68.1
3. 91.4
4. 2.1

###

Target sequence: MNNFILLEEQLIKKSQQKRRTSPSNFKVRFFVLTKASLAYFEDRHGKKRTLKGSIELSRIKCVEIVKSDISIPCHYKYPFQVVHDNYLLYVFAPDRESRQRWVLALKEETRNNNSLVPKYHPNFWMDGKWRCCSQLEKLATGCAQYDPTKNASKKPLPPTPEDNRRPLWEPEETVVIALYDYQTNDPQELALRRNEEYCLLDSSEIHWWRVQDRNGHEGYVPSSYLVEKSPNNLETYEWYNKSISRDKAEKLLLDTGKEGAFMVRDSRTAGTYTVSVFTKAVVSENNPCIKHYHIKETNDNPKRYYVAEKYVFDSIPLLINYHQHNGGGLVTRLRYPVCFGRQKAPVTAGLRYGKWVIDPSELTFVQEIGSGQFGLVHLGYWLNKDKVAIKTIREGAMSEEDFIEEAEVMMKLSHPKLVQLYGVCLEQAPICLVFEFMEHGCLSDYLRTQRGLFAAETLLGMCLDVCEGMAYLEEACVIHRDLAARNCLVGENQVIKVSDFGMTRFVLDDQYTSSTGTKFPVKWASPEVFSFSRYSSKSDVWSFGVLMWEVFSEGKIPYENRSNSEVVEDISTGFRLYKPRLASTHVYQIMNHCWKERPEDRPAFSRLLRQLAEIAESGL
Criterion: IC50 strictly less than 8 nM. Met: criterion met. Not met: criterion not met.

C=CC(=O)Nc1cccc(-c2cc(CN3CCN(C)CC3)cc(Nc3ncc(C)s3)n2)c1 [Compound 37] = criterion met
C=CC(=O)Nc1cccc(-c2cc(C)cc(Nc3ccccn3)n2)c1 [Compound 18] = criterion not met
C=CC(=O)Nc1cccc(-c2cc(Cc3ccccc3)cc(Nc3cc(-c4ccccc4)[nH]n3)n2)c1 [Compound 5] = criterion not met
C=CC(=O)Nc1cccc(-c2cc(CN3CCN(C(C)C)CC3)cc(Nc3ncc(C)s3)n2)c1 [Compound 54] = criterion met
C=CC(=O)Nc1cccc(-c2cc(Cc3ccccc3)cc(Nc3cc(Cc4ccc(C)cc4)[nH]n3)n2)c1 [Compound 8] = criterion not met

# TODO verify IC50 < 8 nM strictly for this compound: C=CC(=O)Nc1cccc(-c2cc(C(=O)N3CCOCC3)cc(Nc3ncc(C)s3)n2)c1 [Compound 29]
criterion not met

Ok, now C=CC(=O)Nc1cccc(-c2cc(CN3CC(C)OC(C)C3)cc(Nc3ncc(C)s3)n2)c1 (stereo not drawn) [Compound 34]
criterion met

Ok, now C=CC(=O)Nc1cccc(-c2cc(CN3CCOCC3)cc(Nc3ncc(C(=O)Nc4c(C)cccc4Cl)s3)n2)c1 [Compound 33]
criterion not met
